src = patent US20170253656A1

- target.or.system: T1, hu-CD74 antigen (R&D SYSTEMS catalog #3590-CD-050) (human, UniProt P04233-2 73-232, limits assumed)
- T1 construct: Bought antigen; also called rhCD74; human CD74
- T1 sequence (looked up): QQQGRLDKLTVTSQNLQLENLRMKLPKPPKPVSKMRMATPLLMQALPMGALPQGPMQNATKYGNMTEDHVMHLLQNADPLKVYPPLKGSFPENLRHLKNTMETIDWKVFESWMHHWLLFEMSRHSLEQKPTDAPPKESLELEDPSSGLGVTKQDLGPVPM
- assay.explanation: SPR (Biacore T200), captured on anti-human Fc, rhCD74 analyte
experimental.endpoint: kon (M⁻¹ s⁻¹)
Write the value in M⁻¹ s⁻¹ as a bare number.

These solved cases illustrate the format of a correct answer.
INSERT INTO assay_data (binder, experimental_endpoint, reported_measurement) VALUES
  ('1193-C08 (scFv, Called scFv clone) scFv: EVQLLESGGGLVQPGGSLRLSCAASGFTFNNNWMSWVRQAPGKGLEWVGIINGDDGYTYYADRVKGRFTIIRDNSKNTLYLQMNSLRAEDTAVYYCAKVALGRPRRFDYWGQGTLVTVSSGGGGSGGGGSGGGGSEIVLTQSPGTLSLTPGERATLSCRASQSVSSNYLAWYQQKPGQAPRLLIYGASSRATGIPDRFSGSGSGTDFTLTISRLEPEDFAMYYCQQHYTTPPTFGQGTKVEIK', 'kon', 116000),
  ('1193-E06b (scFv, Called scFv clone) scFv: EVQLLESGGGLVQPGGSLRLSCAASGFTFNNTDMSWVRQAPGKGLEWVGIINGSGGATNYADSVKGRFTISRDNSKNTLYLQMNSLRAEDTAVYYCAKFENEWEVSMDYWGQGTLVTVSSGGGGSGGGGSGGGGSEIVLTQSPGTLSLSPGERATLSCRASQSVSSSYLAWYQQKPGQAPRLLIYGASSRATGIPDRFSGSGSGTDFTLTISRLEPEDFAVYYCQQHYTTPPTFGQGTKVEIK', 'kon', 975000);

Given item 1193-B06 (scFv, Called scFv clone; VH3-23 / Vk3-A27; Biacore capture was on anti-human Fc, so an Fc may have been attached) scFv: EVQLLESGGGLVQPGGSLRLSCAASGFTFTGNWMSWVRQAPGKGLEWVGIIYGTSGATYYADSVKGRFTISRDNSKNTLYLQMNSLRAEDTAVYYCAKPSMSGSRGFDYWGQGTLVTVSSGGGGSGGGGSGGGGSEIVLTQSPGTLSLSPGERATLSCRAGQSVSSSYLAWYQQKPGQAPRLLIYGASSRATGIPDRFSGSGSGTDFTLTISRLEPEDFAVYYCQQHYTTPPTFGQGTKVEIK , the value recorded as its kon is 946000
